Target: binding sites on human melanoma M24met cells
Experiment: binding of CN to human melanoma M24met cells, lower affinity site
quantity measured: pKd
Give bare numbers, as −log10 of the molar value.

contortrostatin (ligand, also called CN; homodimeric disintegrin) DAPANPCCDAATCKLTTGSQCADGLCCDQCKFMKEGTVCRRARGDDLDDYCNGISAGCPRNPFHA has a reported pKd of 7.39

Reference for the values: patent US20040132659A1
